# system: human insulin receptor (HIR) (human, UniProt P06213)
# experiment: competition
observable: Kd

Query: Give the measured Kd of GSLDESFYDWFER [S396] .
Result: > 20 µM

Where do these numbers come from? They come from patent US20090053807.
